pIC50 listing for selected compounds.
biological target: Platelet-activating factor acetylhydrolase (Homo sapiens, UniProt Q13093); experiment: Inhibition of isolated human lipoprotein associated phospholipase A2
Sequence (Q13093 whole entry): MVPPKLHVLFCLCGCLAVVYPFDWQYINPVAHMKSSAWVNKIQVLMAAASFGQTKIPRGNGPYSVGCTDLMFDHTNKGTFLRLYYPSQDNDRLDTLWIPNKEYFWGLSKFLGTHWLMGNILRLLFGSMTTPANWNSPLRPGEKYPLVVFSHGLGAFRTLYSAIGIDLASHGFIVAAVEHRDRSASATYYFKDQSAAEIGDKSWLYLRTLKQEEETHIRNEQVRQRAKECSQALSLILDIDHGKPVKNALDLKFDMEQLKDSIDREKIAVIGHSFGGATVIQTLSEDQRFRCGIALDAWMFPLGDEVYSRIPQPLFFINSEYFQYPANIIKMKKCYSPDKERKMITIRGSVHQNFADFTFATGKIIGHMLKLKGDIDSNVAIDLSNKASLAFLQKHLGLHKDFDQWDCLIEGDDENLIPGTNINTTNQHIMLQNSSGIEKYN
Conceptually, pIC50 converts a concentration in mol/L into minus its log10.

Structure smiles string | Val
CCCCCCCCC=CCCCCCCCCNC(=O)Cn1cc(Cc2cncnc2)c(=O)nc1SCc1ccc(F)cc1 | 9.00
O=c1nc(SCc2ccc(F)cc2)n(CCc2ccccc2)cc1Cc1cncnc1 | 6.70
O=C(CCCCCCCSc1nc(=O)c(Cc2cncnc2)cn1CCc1ccccc1)c1ccc(Cl)cc1 | 7.47

pIC50 reading for CCCCCCCC(=O)NCCn1cc(Cc2cncnc2)c(=O)nc1SCc1ccc(F)cc1 : 6.85

Entry COCCn1cc(Cc2cncnc2)c(=O)nc1SCc1ccccc1 ; pIC50 = 5.92

In plain terms, CCCCCCCNC(=O)NCCn1cc(Cc2cncnc2)c(=O)nc1SCc1ccc(F)cc1 has a documented pIC50 of 7.15

Entry under test: O=C(CCCCCCCSc1nc(=O)c(Cc2cncnc2)cn1CCCc1ccccc1)c1ccc(Cl)cc1 . Its pIC50 was 7.05

Lab note: Cn1cc(Cc2cncnc2)c(=O)nc1SCCCCCCCC(=O)c1ccc(Cl)cc1 gave pIC50 of 7.72

Record summary for CCCCCCCCNC(=O)Cn1cc(Cc2cncnc2)c(=O)nc1SCc1ccc(F)cc1 : reported pIC50 = 8.15

Query O=c1nc(SCc2ccc(Cl)cc2)n(Cc2ccco2)cc1Cc1cncnc1 yields pIC50 of 5.85

pIC50 for O=c1nc(SCc2ccccc2)n(CCc2cccs2)cc1Cc1cncnc1 is 6.46
